Hi there, I'd appreciate the recorded cell count for every entry that follows.
# assay name: cell-permeable autofluorescent compounds in GFP channel, dose response, artefact control, imaging, high-content imaging (AID 2124);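 also: cells exposed to compound for 48 hours before fixing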
# measurement context: cells, GFP-channel autofluorescence, high-content imaging; cell count; at 10 µM
Results filed as inconclusive are left out.
Write the value in cells as a bare number.

In: // cell count lookup, key: Cn1ncc2c1ncn1nc(CCc3ccccc3)nc21
Out: 2710

In: I would be grateful if you could share the reported cell count for Nc1c(C(=O)NC2CCCC2)sc2nc(-c3cccs3)ccc12 .
Out: 2460

In: Requested read-out: cell count. Entry: Cc1ccc(Nc2nc(Cl)c(C=O)s2)cc1Cl
Out: 2840

In: If you can, please state the reported cell count value of C=CCn1c(=NC(=O)c2cc(-c3cccs3)nc3ccccc23)sc2cc(S(N)(=O)=O)ccc21 .
Out: 2770

In: Record request: cell count value, item CC(=O)Nc1sc(/C(C#N)=C\c2cccc(Cl)c2)nc1-c1ccc(C)cc1
Out: 3000

In: Recorded cell count of CCN1/C(=C/c2ccc3cc(C)ccc3[n+]2CC)Sc2ccccc21 , please.
Out: 190

In: Request the reported cell count associated with N#C/C(=C\c1ccc(N2CCCCC2)o1)C(=O)Nc1cccc(Br)c1
Out: 2780

In: Need cell count of O=C1C=C(Nc2ccc(O)cc2)CC(c2ccco2)C1 (stereo unspecified) , thanks.
Out: 3020

In: Could you tell me which cell count is on file for COc1ccc(C2C(C(=O)c3ccccc3)=C(C)Nc3nc4ccccc4n32)c(OC)c1 (stereo unspecified) ?
Out: 3000

In: What value of measured cell count is listed for COc1cc2c(cc1OC)C1=CC(=O)C(=O)N1C(C)(C)C2 ?
Out: 2990

In: Entry under review: Cc1nc2c(oc3ccccc32)c(=O)o1 . Reported cell count?
Out: 3020

These data points were gathered from PubChem BioAssay AID2124.
